Test system: Candida duobushaemulonii
Assay: Planktonic growth, broth microdilution (CLSI M27-A3), MIC
Type: cell-based
Conditions: isolate LIP Ch1; planktonic, 48 h, 37°C
Description: Three clinical isolates of each species that form the C. haemulonii complex were used in this study: C. haemulonii (LIPCh4 from finger nail, LIPCh7 from toe nail, and LIPCh12 from blood), C. duobushaemulonii (LIPCh1 from finger nail, LIPCh6 from toe nail, and LIPCh8 from blood) and C. haemulonii var. vulnera (LIPCh5 from toe nail, LIPCh9 from urine, and LIPCh11 from blood) (Ramos et al., [2015]). […]
READOUT: MIC (µg/mL)
Record the value in µg/mL, omitting the unit from your answer.

- COMPOUND: "O.O.O.O.O.O.O.O.O.O.O.O.O.O.O.O.O=C([O-])c1cccc(C(=O)[O-])c1.O=C([O-])c1cccc(C(=O)[O-])c1.[Mn+2].[Mn+2].c1cnc2c(c1)ccc1cccnc12.c1cnc2c(c1)ccc1cccnc12.c1cnc2c(c1)ccc1cccnc12.c1cnc2c(c1)ccc1cccnc12.c1cnc2c(c1)ccc1cccnc12 [compound 11, {[Mn(phen)2(H2O)2]}2(isoph)2(phen).12H2O]"
  SYSTEM_NAME: "Candida duobushaemulonii"
  UNIT_ANNOTATION: "µg/mL"
  MIC: 2
- COMPOUND: "O=[N+]([O-])[O-].[Ag+] [AgNO3, reference compound]"
  SYSTEM_NAME: "Candida duobushaemulonii"
  UNIT_ANNOTATION: "µg/mL"
  MIC: 0.5
- COMPOUND: "CCO.O.O.O.O.O.O.O=C([O-])c1cccc(C(=O)[O-])c1.[Cu+2].c1cnc2c(c1)ccc1cccnc12.c1cnc2c(c1)ccc1cccnc12 [compound 3, [Cu(isoph)(phen)2].6H2O.EtOH]"
  SYSTEM_NAME: "Candida duobushaemulonii"
  UNIT_ANNOTATION: "µg/mL"
  MIC: 4
- COMPOUND: "CCO.O=C([O-])COCCOCCOCC(=O)[O-].[Ag+].[Ag+].c1cnc2c(c1)ccc1cccnc12.c1cnc2c(c1)ccc1cccnc12.c1cnc2c(c1)ccc1cccnc12.c1cnc2c(c1)ccc1cccnc12 [compound 16, [Ag2(3,6,9-tdda)(phen)4].EtOH]"
  SYSTEM_NAME: "Candida duobushaemulonii"
  UNIT_ANNOTATION: "µg/mL"
  MIC: 2
- COMPOUND: "[Ag+].[O-][Cl+3]([O-])([O-])[O-].c1cnc2c(c1)ccc1cccnc12.c1cnc2c(c1)ccc1cccnc12 [compound 17, [Ag(phen)2]ClO4]"
  SYSTEM_NAME: "Candida duobushaemulonii"
  UNIT_ANNOTATION: "µg/mL"
  MIC: 2

INPUT: Retrieve MIC on Candida duobushaemulonii; query O=C1C(=O)c2cccnc2-c2ncccc21.O=C1C(=O)c2cccnc2-c2ncccc21.[Ag+].[O-][Cl+3]([O-])([O-])[O-] [compound 15, [Ag(phendione)2]ClO4]
OUTPUT: 2

INPUT: Retrieve MIC on Candida duobushaemulonii; query CCO.O=C([O-])CCCCCCC(=O)[O-].[Cu+2].[Cu+2].[O-][Cl+3]([O-])([O-])[O-].[O-][Cl+3]([O-])([O-])[O-].c1cnc2c(c1)ccc1cccnc12.c1cnc2c(c1)ccc1cccnc12.c1cnc2c(c1)ccc1cccnc12.c1cnc2c(c1)ccc1cccnc12 [compound 5, [Cu2(oda)(phen)4](ClO4)2.2.76H2O.EtOH]
OUTPUT: 8

###

System: Candida haemulonii
Assay: Planktonic growth, broth microdilution (CLSI M27-A3), MIC
Assay type: cell-based
Conditions: isolate LIP Ch12; planktonic, 48 h, 37°C
READOUT: MIC (µg/mL)
Record the value in µg/mL, omitting the unit from your answer.

- COMPOUND: "[Ag+].[O-][Cl+3]([O-])([O-])[O-].c1cnc2c(c1)ccc1cccnc12.c1cnc2c(c1)ccc1cccnc12 [compound 17, [Ag(phen)2]ClO4]"
  MIC (µg/mL): 1

INPUT: Retrieve MIC on Candida haemulonii; query O.O.O.O.O.O.O=C([O-])CCCCCCC(=O)[O-].O=C([O-])CCCCCCC(=O)[O-].O=C([O-])CCCCCCC(=O)[O-].O=C([O-])CCCCCCC(=O)[O-].[Mn+2].[Mn+2].[Mn+2].[Mn+2].c1cnc2c(c1)ccc1cccnc12.c1cnc2c(c1)ccc1cccnc12.c1cnc2c(c1)ccc1cccnc12.c1cnc2c(c1)ccc1cccnc12.c1cnc2c(c1)ccc1cccnc12.c1cnc2c(c1)ccc1cccnc12.c1cnc2c(c1)ccc1cccnc12.c1cnc2c(c1)ccc1cccnc12
OUTPUT: 2

###

Test system: Candida duobushaemulonii
Test: Planktonic growth, broth microdilution (CLSI M27-A3), MIC
Format: cell-based
Conditions: isolate LIP Ch1; planktonic, 48 h, 37°C
Listing of recorded MIC by entry.
Record the value in µg/mL, omitting the unit from your answer.

// worked examples, MIC included
- COMPOUND: "O.O.O.O.O.O=C([O-])c1ccc(C(=O)[O-])cc1.[Mn+2].c1cnc2c(c1)ccc1cccnc12.c1cnc2c(c1)ccc1cccnc12 [compound 12, [Mn(tereph)(phen)2].5H2O]"
  UNIT_ANNOTATION: "µg/mL"
  VAL: 4
- COMPOUND: "O.O.O.O.O.O=C([O-])c1ccccc1C(=O)[O-].[Mn+2].c1cnc2c(c1)ccc1cccnc12.c1cnc2c(c1)ccc1cccnc12 [compound 9, [Mn(ph)(phen)2(H2O)].4H2O]"
  UNIT_ANNOTATION: "µg/mL"
  VAL: 2

Note: attention shifts to another entry.
INPUT: State its MIC: O.O.O.O.O.O.O=C([O-])CCCCCCC(=O)[O-].O=C([O-])CCCCCCC(=O)[O-].O=C([O-])CCCCCCC(=O)[O-].O=C([O-])CCCCCCC(=O)[O-].[Mn+2].[Mn+2].[Mn+2].[Mn+2].c1cnc2c(c1)ccc1cccnc12.c1cnc2c(c1)ccc1cccnc12.c1cnc2c(c1)ccc1cccnc12.c1cnc2c(c1)ccc1cccnc12.c1cnc2c(c1)ccc1cccnc12.c1cnc2c(c1)ccc1cccnc12.c1cnc2c(c1)ccc1cccnc12.c1cnc2c(c1)ccc1cccnc12 [compound 13]
OUTPUT: 2

###

Tested on: Candida haemulonii var. vulnera
Assay: Planktonic growth, broth microdilution (CLSI M27-A3), MIC
Assay type: cell-based
Settings: isolate LIP Ch11; planktonic, 48 h, 37°C
READOUT: MIC (µg/mL)
Record the value in µg/mL, omitting the unit from your answer.

- COMPOUND: "CCO.O=C([O-])COCCOCCOCC(=O)[O-].[Ag+].[Ag+].c1cnc2c(c1)ccc1cccnc12.c1cnc2c(c1)ccc1cccnc12.c1cnc2c(c1)ccc1cccnc12.c1cnc2c(c1)ccc1cccnc12 [compound 16, [Ag2(3,6,9-tdda)(phen)4].EtOH]"
  SYSTEM_NAME: "Candida haemulonii var. vulnera"
  MIC [µg/mL]: 1

Note: attention shifts to another entry.
INPUT: State its MIC: O.O.O.O=C([O-])CCCCCCCCCC(=O)[O-].[Ag+].[Ag+].c1cnc2c(c1)ccc1cccnc12.c1cnc2c(c1)ccc1cccnc12.c1cnc2c(c1)ccc1cccnc12 [compound 18, [Ag2(phen)3(udda)].3H2O]
OUTPUT: 0.25

###

Tested on: Candida haemulonii var. vulnera
Test: Planktonic growth, broth microdilution (CLSI M27-A3), MIC
Format: cell-based
Details: isolate LIP Ch11; planktonic, 48 h, 37°C
Listing of recorded MIC by entry.
Record the value in µg/mL, omitting the unit from your answer.

// worked examples, MIC included
- COMPOUND: "O.O.O.O.O.O=C([O-])c1ccccc1C(=O)[O-].[Mn+2].c1cnc2c(c1)ccc1cccnc12.c1cnc2c(c1)ccc1cccnc12 [compound 9, [Mn(ph)(phen)2(H2O)].4H2O]"
  VAL: 2
- COMPOUND: "O.O.O.O.O.O=C([O-])c1ccc(C(=O)[O-])cc1.[Mn+2].c1cnc2c(c1)ccc1cccnc12.c1cnc2c(c1)ccc1cccnc12 [compound 12, [Mn(tereph)(phen)2].5H2O]"
  VAL: 4
- COMPOUND: "CCO.O.O.O.O.O.O.O=C([O-])c1cccc(C(=O)[O-])c1.[Cu+2].c1cnc2c(c1)ccc1cccnc12.c1cnc2c(c1)ccc1cccnc12 [compound 3, [Cu(isoph)(phen)2].6H2O.EtOH]"
  VAL: 8

INPUT: Retrieve MIC on Candida haemulonii var. vulnera; query O.O.O.O.O.O.O.O.O.O.O.O.O.O.O.O.O=C([O-])c1cccc(C(=O)[O-])c1.O=C([O-])c1cccc(C(=O)[O-])c1.[Mn+2].[Mn+2].c1cnc2c(c1)ccc1cccnc12.c1cnc2c(c1)ccc1cccnc12.c1cnc2c(c1)ccc1cccnc12.c1cnc2c(c1)ccc1cccnc12.c1cnc2c(c1)ccc1cccnc12 [compound 11, {[Mn(phen)2(H2O)2]}2(isoph)2(phen).12H2O]
OUTPUT: 2

INPUT: Retrieve MIC on Candida haemulonii var. vulnera; query CCO.O=C([O-])CCCCCCC(=O)[O-].[Cu+2].[Cu+2].[O-][Cl+3]([O-])([O-])[O-].[O-][Cl+3]([O-])([O-])[O-].c1cnc2c(c1)ccc1cccnc12.c1cnc2c(c1)ccc1cccnc12.c1cnc2c(c1)ccc1cccnc12.c1cnc2c(c1)ccc1cccnc12 [compound 5, [Cu2(oda)(phen)4](ClO4)2.2.76H2O.EtOH]
OUTPUT: 8

INPUT: Retrieve MIC on Candida haemulonii var. vulnera; query CCO.CCO.O=C([O-])c1ccc(C(=O)[O-])cc1.O=C([O-])c1ccc(C(=O)[O-])cc1.[Cu+2].[Cu+2].c1cnc2c(c1)ccc1cccnc12.c1cnc2c(c1)ccc1cccnc12.c1cnc2c(c1)ccc1cccnc12.c1cnc2c(c1)ccc1cccnc12 [compound 4]
OUTPUT: 32

INPUT: Retrieve MIC on Candida haemulonii var. vulnera; query O.O.O.O.O=C1C(=O)c2cccnc2-c2ncccc21.O=C1C(=O)c2cccnc2-c2ncccc21.O=C1C(=O)c2cccnc2-c2ncccc21.[Cu+2].[O-][Cl+3]([O-])([O-])[O-].[O-][Cl+3]([O-])([O-])[O-] [compound 6, [Cu(phendione)3](ClO4)2.4H2O]
OUTPUT: 8
